- assay_comment: Cytotoxicity against MDBK cells
- Assay type: cell-based, Bos taurus
- applied_conditions: cattle
readout: CC50

* Fc1cccc(-c2nc3ccn(Cc4ccc(OC(F)(F)F)cc4)cc-3n2)c1F | > 100 µM
* Fc1ccccc1-c1nc2ccn(CCOc3ccccc3)cc-2n1 | > 104 µM

* * *

- assay_comment: Cytotoxicity against Huh 5-2 cells
- Assay type: cell-based
- applied_conditions: human
CC50 values, listed per item
readout: CC50 (µM)

- Fc1ccccc1-c1nc2ccn(CCOc3ccccc3)cc-2n1: 96
- Fc1cccc(-c2nc3ccn(Cc4ccc(OC(F)(F)F)cc4)cc-3n2)c1F: 81
